Data origin: ChEMBL document CHEMBL3769348

Each entry below carries its reported Activity.
Molecular target: UniProt P08173
Assay: Allosteric modulation of human M4 mAChR expressed in FIpIn-CHO cells assessed as ERK1/2 phosphorylation measured overall cooperativity after 6 mins by Alphascreen assay
Format: cell-based

INSERT INTO results (sample_smiles, result) VALUES
  ('Cc1cc(C)c2c(N)c(C(=O)NC3CC3)sc2n1', 52.5);

Consider the record given below.
Ask | Suppose we examine the molecule CCNC(=O)c1sc2nc(OC)c(Cl)c(C)c2c1N ; what Activity value has been reported?
Reply | 69.2

====

Each entry below carries its reported log(activity).
Biological target: Muscarinic acetylcholine receptor M4 (Homo sapiens) (UniProt P08173)
Sequence (P08173 whole entry): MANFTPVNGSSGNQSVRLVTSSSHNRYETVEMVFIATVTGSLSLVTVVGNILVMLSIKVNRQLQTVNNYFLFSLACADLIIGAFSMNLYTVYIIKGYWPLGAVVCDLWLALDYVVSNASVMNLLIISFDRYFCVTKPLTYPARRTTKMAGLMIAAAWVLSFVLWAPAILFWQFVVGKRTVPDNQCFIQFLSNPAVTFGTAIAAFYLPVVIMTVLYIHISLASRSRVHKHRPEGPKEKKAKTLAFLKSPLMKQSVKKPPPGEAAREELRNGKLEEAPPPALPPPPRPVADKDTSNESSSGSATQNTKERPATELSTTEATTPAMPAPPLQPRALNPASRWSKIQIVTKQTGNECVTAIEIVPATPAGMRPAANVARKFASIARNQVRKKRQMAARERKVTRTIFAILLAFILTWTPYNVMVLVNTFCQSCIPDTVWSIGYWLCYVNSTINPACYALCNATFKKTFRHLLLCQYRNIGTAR
Assay: Allosteric modulation of human M4 mAChR expressed in FIpIn-CHO cells assessed as ERK1/2 phosphorylation measured overall cooperativity after 6 mins by Alphascreen assay
Type: cell-based

INSERT INTO results (sample_smiles, result) VALUES
  ('COc1cc(C)c2c(N)c(C(=O)NC3CC3)sc2n1', 1.46);

Consider the record given below.
Ask | Suppose we examine the compound CCCCNC(=O)c1sc2nc(OC)c(Cl)c(C)c2c1N ; what log(activity) value has been reported?
Reply | 1.19
